# Experimental system: Man(a1-2)Man(a1-2)Man(a1-3)[Man(a1-2)Man(a1-6)[Man(a1-3)]Man(a1-6)]Man(b1-4)GlcNAc(b1-4)GlcNAc
# Run description: glycan array binding signal (z-score within array); higher = stronger binding
# Applied conditions: glycan notation: IUPAC condensed, linker removed
Only a selection was taken, and the strongest signals are over-represented in it overall.
Value kind: glycan array binding signal (z-score)

[[record]]
binder = "RNase 1 (Bos taurus), P61823 (protein) MALKSLVLLSLLVLVLLLVRVQPSLGKETAAAKFERQHMDSSTSAASSSNYCNQMMKSRNLTKDRCKPVNTFVHESLADVQAVCSQKNVACKNGQTNCYQSYSTMSITDCRETGSSKYPNCAYKTTQANKHIIVACEGNPYVPVHFDASV"
result_value = -0.153

